# Test system: CP191
# assay_explanation: qHTS profiling for inhibitors of Plasmodium falciparum proliferation (AID 504749); note: nearly all actives have a fitted effect of over 60% in size
# measurement_parameters: P. falciparum in erythrocytes, SYBR Green DNA, 72 h; series mostly up to 28.7 µM
Results filed as inconclusive are left out. Active and inactive are the calls of the source. Calls come from the whole dose curve; as a rule, active = well fitted inhibition curve with a large enough effect; inconclusive = small, poorly fitted or top-dose-only effect; inactive = flat fitted curve, though single readings scatter.
Would you mind answering with one of these outcomes? true for active, false for inactive

**Q:** Fill in: this test's call for COC(=O)CC[C@H](N)C(=O)O is ___
**A:** false

**Q:** Fill in: this test's call for CC(=O)[C@H]1CC[C@H]2[C@@H]3C=CC4=CC(=O)CC[C@@]4(C)[C@H]3CC[C@]12C is ___
**A:** false

**Q:** Fill in: this test's call for CS(=O)(=O)OCC(O)C(O)COS(C)(=O)=O (configuration not stated) is ___
**A:** false

**Q:** Fill in: this test's call for CN1C(=O)C[C@@H](C(=O)N[C@@H](Cc2cnc[nH]2)C(=O)N2CCC[C@H]2C(N)=O)NC1=O is ___
**A:** false

**Q:** Fill in: this test's call for CC1CC(O)CC(C)(C)C1 (configuration not stated) is ___
**A:** false

**Q:** Fill in: this test's call for Cc1c(Cl)cccc1Nc1ncccc1C(=O)O is ___
**A:** false

**Q:** Fill in: this test's call for COc1ccc(C(=O)c2ccc(C)cc2)c(O)c1 is ___
**A:** false

**Q:** Fill in: this test's call for CCOC(=O)c1cc(-c2ccccc2)nc2ccc(C)cc12 is ___
**A:** false

**Q:** Fill in: this test's call for O=C(O)[C@H]1CN(C/C=C/P(=O)(O)O)CCN1 is ___
**A:** false

**Q:** Fill in: this test's call for Cc1cccc(C)c1NC(=O)C1CCCCN1C (configuration not stated) is ___
**A:** false

**Q:** Fill in: this test's call for C[C@]12CCC(=O)C[C@@H]1CC[C@@H]1[C@@H]2CC[C@]2(C)C=CC[C@@H]12 is ___
**A:** false

**Q:** Fill in: this test's call for O=C(O)CCCC/C=C(\c1ccccc1)c1cccnc1 is ___
**A:** false

**Q:** Fill in: this test's call for CCCCCCOC(=O)c1cccnc1 is ___
**A:** false

**Q:** Fill in: this test's call for O=C1NCCN1c1ncc([N+](=O)[O-])s1 is ___
**A:** false

**Q:** Fill in: this test's call for CC1(C)S[C@@H]2[C@H](NC(=O)C3(N)CCCCC3)C(=O)N2[C@H]1C(=O)O is ___
**A:** false

**Q:** Fill in: this test's call for O=C(O)/C=C/C(=O)Nc1ccc(S(=O)(=O)Nc2nccs2)cc1 is ___
**A:** false

**Q:** Fill in: this test's call for Cc1ncc(COP(=O)(O)O)c(CN)c1O is ___
**A:** false

**Q:** Fill in: this test's call for COc1cc2c(cc1OC)[C@@H](Cc1cc(OC)c(OC)c(OC)c1)[N+](C)(CCCOC(=O)CC/C=C/CCC(=O)OCCC[N+]1(C)CCc3cc(OC)c(OC)cc3[C@H]1Cc1cc(OC)c(OC)c(OC)c1)CC2 (some centres not stated) is ___
**A:** false

**Q:** Fill in: this test's call for OCl is ___
**A:** false

**Q:** Fill in: this test's call for CC1(O)CCC(C(C)(C)O)CC1 (configuration not stated) is ___
**A:** false

**Q:** Fill in: this test's call for OCC1(CO)COC(C(Cl)(Cl)Cl)OC1 is ___
**A:** false

**Q:** Fill in: this test's call for FC(F)OC(Cl)C(F)(F)F (configuration not stated) is ___
**A:** false

**Q:** Fill in: this test's call for O.O.O.O.O.O.O.O=S(=O)([O-])[O-].[Co+2] is ___
**A:** true

**Q:** Fill in: this test's call for O=[N+]([O-])c1c(Cl)cccc1-c1c[nH]cc1Cl is ___
**A:** false

**Q:** Fill in: this test's call for CC(=O)Nc1ccc(OC(C)=O)cc1 is ___
**A:** false

**Q:** Fill in: this test's call for C=CCOc1ccc(CC(=O)O)cc1Cl is ___
**A:** false

**Q:** Fill in: this test's call for C(=C\c1ccncc1)/c1ccccc1 is ___
**A:** false

**Q:** Fill in: this test's call for CCOC(C)OCC is ___
**A:** false

**Q:** Fill in: this test's call for C[C@]12CC[C@@H]3c4ccc(OC(=O)c5ccccc5)cc4CC[C@H]3[C@@H]1CC[C@@H]2O is ___
**A:** false

**Q:** Fill in: this test's call for CCCOc1cc(N)ccc1C(=O)OCCN(CC)CC is ___
**A:** false

**Q:** Fill in: this test's call for Cc1ncc(C[n+]2csc(CCOP(=O)(O)O)c2C)c(N)n1 is ___
**A:** false

**Q:** Fill in: this test's call for CC(C)(C)c1ccc2c(S(=O)(=O)O)c(C(C)(C)C)ccc2c1 is ___
**A:** false

**Q:** Fill in: this test's call for CCC(Cc1c(I)cc(I)c(O)c1I)C(=O)O (configuration not stated) is ___
**A:** false

**Q:** Fill in: this test's call for CCC(C(=O)NC(N)=O)c1ccccc1 (configuration not stated) is ___
**A:** false

**Q:** Fill in: this test's call for CC(C)(CO)[C@@H](O)C(=O)NCCC(=O)NCCSSCCNC(=O)CCNC(=O)[C@H](O)C(C)(C)CO is ___
**A:** false

**Q:** Fill in: this test's call for CC(C)CCC[C@@H](C)[C@H]1CC[C@H]2[C@@H]3CC=C4C[C@@H](O)CC[C@]4(C)[C@H]3CC[C@]12C is ___
**A:** false

**Q:** Fill in: this test's call for CC1=C(/C=C/C(C)=C/C=C/C(C)=C/C(=O)Oc2c(C)c(C)c3c(c2C)CC[C@@](C)(CCC[C@H](C)CCC[C@H](C)CCCC(C)C)O3)C(C)(C)CCC1 is ___
**A:** false

**Q:** Fill in: this test's call for NC(=O)C1c2ccccc2CCc2ccccc21 is ___
**A:** false

**Q:** Fill in: this test's call for CN[C@@H]1[C@H](O[C@H]2[C@H](O[C@H]3[C@H](O)[C@@H](O)[C@H](N=C(N)N)[C@@H](O)[C@@H]3N=C(N)N)O[C@@H](C)[C@]2(O)C=O)O[C@@H](CO)[C@H](O)[C@H]1O is ___
**A:** false

**Q:** Fill in: this test's call for O=C(CCCCCCCCCCCCC1CCCC1)Nc1ccc(S(=O)(=O)c2ccc(NC(=O)CCCCCCCCCCCCC3CCCC3)cc2)cc1 is ___
**A:** false

**Q:** Fill in: this test's call for CC1CCC(NC(=O)N(CCCl)N=O)CC1 (configuration not stated) is ___
**A:** false

**Q:** Fill in: this test's call for O=C(O)c1cc(N=Nc2ccc(O)c(C(=O)O)c2)ccc1O is ___
**A:** false

**Q:** Fill in: this test's call for O=C(NNCS(=O)(=O)O)c1ccncc1 is ___
**A:** false

**Q:** Fill in: this test's call for CC(C)(Oc1ccc(C2CCCc3ccccc32)cc1)C(=O)O (configuration not stated) is ___
**A:** false

**Q:** Fill in: this test's call for C=C(C)C1CC=C(C)CC1 (configuration not stated) is ___
**A:** false

**Q:** Fill in: this test's call for NC(N)=O is ___
**A:** false

**Q:** Fill in: this test's call for CN1C(=O)OC(C)(C)C1=O is ___
**A:** false
